- Assay: modulators of CIT2-GFP expression in yeast, confirmation, S. cerevisiae, GFP fusion, cherry picks, mother/daughter gates (AID 2274)
- Cond: S. cerevisiae CIT2-GFP strain, flow cytometry, 3 h; measured here: daughter cell gate; at 10 µM; stronger effect = higher value
Experimental endpoint: GFP response, % of DMSO (%)
Could you give me the number in %? Just the number is fine.

Task: Name the reported GFP response, % of DMSO value associated with the compound Cc1cc(O)c(C(=O)/C=C/c2c(F)c(F)c(F)c(F)c2F)c(=O)o1
Result: 101

Task: Name the reported GFP response, % of DMSO value associated with the compound CNC(=O)/C(C#N)=C/c1c(N2CCCCCC2)nc2ccccn2c1=O
Result: 110

Task: Name the reported GFP response, % of DMSO value associated with the compound C[n+]1ccc(/C=C/c2c[nH]c3ccccc23)cc1
Result: 142

Task: Name the reported GFP response, % of DMSO value associated with the compound NC(=O)c1ccccc1-c1nc(-c2ccccc2)no1
Result: 101

Task: Name the reported GFP response, % of DMSO value associated with the compound O=C(/C=C/c1ccc(-c2ccccc2[N+](=O)[O-])o1)c1ccc(Br)cc1
Result: 105
